- Assay info: Human liver microsomes stability with NADPH
- Protocol conditions: human liver microsomes, with NADPH, 2 μM
Reported metric: Remaining Percentage (%) after 60 min, Human

Molecule: CN(C)CCc1c[nH]c2cccc(O)c12 [Psilocin, 4-hydroxy-N,N-dimethyltryptamine, reference compound]
Numeric result: 70.16
//
Molecule: [2H]C([2H])(c1c[nH]c2cccc(OC)c12)[C@H]1CCCN1C([2H])([2H])[2H] [Compound I-39]
Numeric result: 73.65
//
Molecule: [2H]C([2H])([2H])N1CCC[C@@H]1Cc1c[nH]c2cccc(OC(=O)CCCCCCC/C=C\C/C=C\CCCCC)c12 [Compound I-48]
Numeric result: 34.38
//
Molecule: [2H]C([2H])(c1c[nH]c2cccc(F)c12)[C@H]1CCCN1C([2H])([2H])[2H] [Compound I-37]
Numeric result: 31.93
//
Molecule: [2H]C([2H])(c1c[nH]c2cccc(O)c12)[C@H]1CCCN1C([2H])([2H])[2H] [Compound I-44]
Numeric result: 78.13
//
Molecule: [2H]C([2H])([2H])N1CCC[C@@H]1Cc1c[nH]c2cccc(F)c12 [Compound I-40]
Numeric result: 35.69
//
Molecule: [2H]C([2H])(c1c[nH]c2cccc(O)c12)[C@H]1CCCN1 [Compound I-50]
Numeric result: 69.29
//
Molecule: [2H]C([2H])(c1c[nH]c2cccc(OC(=O)CCCCCCC/C=C\C/C=C\CCCCC)c12)[C@H]1CCCN1C([2H])([2H])[2H] [Compound I-49]
Numeric result: 86.81
//
Molecule: [2H]C([2H])([2H])N1CCC[C@@H]1Cc1c[nH]c2cccc(O)c12 [Compound I-2]
Numeric result: 82.10
